experimental target: ERG (Homo sapiens, UniProt P11308)
Construct: VCaP (endogenous overexpression); endogenous in cells; host or cells: VCaP (whole cells for A2 and A17; nuclear extract for A16)
Sequence (P11308 33-479 limits assumed): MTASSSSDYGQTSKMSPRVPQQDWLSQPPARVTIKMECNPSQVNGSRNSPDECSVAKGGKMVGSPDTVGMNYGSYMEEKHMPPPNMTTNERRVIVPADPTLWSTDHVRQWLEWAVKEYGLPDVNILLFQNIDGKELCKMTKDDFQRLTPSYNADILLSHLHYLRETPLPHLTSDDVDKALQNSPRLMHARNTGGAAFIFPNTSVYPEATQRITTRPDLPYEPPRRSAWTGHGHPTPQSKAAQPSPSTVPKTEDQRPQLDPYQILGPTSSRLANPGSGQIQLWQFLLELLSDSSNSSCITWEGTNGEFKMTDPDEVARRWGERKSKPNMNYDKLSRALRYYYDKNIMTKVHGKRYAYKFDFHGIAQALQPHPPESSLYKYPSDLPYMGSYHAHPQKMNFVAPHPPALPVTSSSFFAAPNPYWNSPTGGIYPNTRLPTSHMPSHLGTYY
test description: Dual reporter luciferase assay (pETS-luc) in VCaP cells
Format: cell-based
test parameters: 0.1-100 μM, 48 h treatment
The entries below come with measured pIC50 values attached.
When answering, recall that pIC50 equals minus log10 of the concentration in mol/L, and write that number alone.

molecule="CC(C)c1ccc(C=N/N=C2\\NC(=O)[C@@H](CC(=O)O)S2)cc1 (stereo in doubt)" reading=5.22

// pIC50 lookup, key: COc1ccc(C(=O)CC2(O)C(=O)Nc3c(Cl)ccc(Cl)c32)cc1 (centres unmarked) [YK-4-279, reference compound]
4.80

* * *

test description: Compound solubility and stability (LC-PDA-MS)
Format: physicochemical
test parameters: cell culture media (RPMI + 5% charcoal stripped serum), plasma or biological fluid, kinetic from dmso stock; RPMI + 5% CSS; 50 mM DMSO stock diluted 1,000x
property measured: solubility at 1 h

// solubility at 1 h lookup, key: CC(C)c1ccc(C=N/N=C2\NC(=O)[C@@H](CC(=O)O)S2)cc1 (stereo in doubt)
> 50 µM
